Catalogue of Papp readings, one per entry.
experiment: in vitro; details: human, Caco-2, Caco-2 (cm/sec)
*1 amine or outer side, *2 acyl side, *3 side chain or, on linkers, in order; H or OH if unused. Where a SMILES comes first, the peptide text is derived from it. Bridges are numbered along the chain shown (N, C = ends). [ ]: non-standard residue; d: D form. The star is where a group is joined. Phe(3-OMe,4-CONHMe) = CNC(=O)c1ccc(C[C@H](N)C(=O)O)cc1OC; X16 = CC(C)C(C)[C@H](N[*:1])C(=O)[*:2]; Hyp = O=C(O)[C@@H]1C[C@@H](O)CN1; NMeF = CN[C@@H](Cc1ccccc1)C(=O)O; NMeI = CC[C@H](C)[C@H](NC)C(=O)O; NMeL = CN[C@@H](CC(C)C)C(=O)O; dNMeL = CN[C@H](CC(C)C)C(=O)O; Piperidide = C1CCN(*)CC1; NBuGly = CCCCNCC(=O)O; Ethyl(2-OH) = OCC*; tBu = CC(C)(C)*
Please respond with the number in ×10⁻⁶ cm/s and leave the unit unwritten.

[[record]]
molecule = "CCCCN1CC(=O)N(C)[C@@H](CC(C)C)C(=O)N[C@@H](COC(C)(C)C)C(=O)N(C)[C@@H]([C@@H](C)CC)C(=O)N(C)[C@@H](CC(C)C)C(=O)N[C@H](C(=O)N2CCCCC2)CC(=O)N[C@H](C)C(=O)N(C)[C@@H](Cc2ccccc2)C(=O)N[C@@H](Cc2ccc(C(=O)NC)c(OC)c2)C(=O)N(C)[C@@H](CC(C)C)C(=O)N[C@@H]([C@@H](C)O)C1=O [AP29] ([dA][NMeF][Phe(3-OMe,4-CONHMe)][NMeL]T[NBuGly][NMeL]S(tBu)[NMeI][NMeL]D-Piperidide; lactam N-11)"
unit_descriptor = "×10⁻⁶ cm/s"
result_value = 0.36


Could you now look at the following molecule, please?
Look at this molecule and give its reported Papp. CC[C@H](C)[C@@H]1NC(=O)[C@H](CC(C)C)N(C)C(=O)[C@@H]2C[C@@H](OCCO)CN2C(=O)[C@H]([C@@H](C)O)NC(=O)[C@H](CC(C)C)N(C)C(=O)[C@H](CC(C)C)NC(=O)[C@H](C(C)C(C)C)NC(=O)[C@@H](CC(C)C)N(C)C(=O)C[C@@H](C(=O)N2CCCCC2)NC(=O)[C@H](CC(C)C)NC(=O)[C@H](CC(C)C)N(C)C1=O (some centres unmarked) [AP233] ([dNMeL][X16]L[NMeL]T[Hyp](Ethyl(2-OH))[NMeL]I[NMeL]LD-Piperidide; lactam N-11)
3

---

assay: in vitro; conditions: human, Caco-2, Caco-2 (cm/sec) Papp
Where a SMILES comes first, the peptide text is derived from it. Bridges are numbered along the chain shown (N, C = ends). [ ]: non-standard residue; d: D form. The star is where a group is joined. NMeAla(4-thiazolyl) = CN[C@@H](Cc1cscn1)C(=O)O; NMeF = CN[C@@H](Cc1ccccc1)C(=O)O; NMeL = CN[C@@H](CC(C)C)C(=O)O; NMeA = CN[C@@H](C)C(=O)O; Piperidide = C1CCN(*)CC1; Sar = CNCC(=O)O; tBu = CC(C)(C)*
# Lookup of reported Papp keyed by entry
Put down the number, then write its unit next to it.

[[record]]
compound = "CC(C)C[C@@H]1NC(=O)[C@H](Cc2ccccc2)N(C)C(=O)[C@H](C)N(C)C(=O)C[C@@H](C(=O)N2CCCCC2)NC(=O)[C@H](CC(C)C)N(C)C(=O)[C@H](Cc2ccccc2)N(C)C(=O)[C@H](Cc2ccccc2)NC(=O)[C@H](Cc2cscn2)N(C)C(=O)[C@H](C)N(C)C(=O)[C@H]([C@@H](C)O)NC(=O)[C@H](CC(C)C)N(C)C1=O [pd226] ([NMeA][NMeF]L[NMeL]T[NMeA][NMeAla(4-thiazolyl)]F[NMeF][NMeL]D-Piperidide; lactam N-11)"
result_value = "0.68 ×10⁻⁶ cm/s"


API: the following record is the query input.
// lookup Papp for CC(C)C[C@@H]1NC(=O)[C@H]([C@@H](C)O)NC(=O)[C@H](CC(C)C)N(C)C(=O)C[C@@H](C(=O)N2CCCCC2)NC(=O)[C@H](COC(C)(C)C)NC(=O)[C@H](Cc2ccccc2)NC(=O)[C@H](C)N(C)C(=O)[C@H](Cc2ccccc2)NC(=O)CN(C)C(=O)[C@H](Cc2ccccc2)N(C)C(=O)[C@H](Cc2ccccc2)N(C)C1=O [pd245] ([NMeL]TL[NMeF][NMeF][Sar]F[NMeA]FS(tBu)D-Piperidide; lactam N-11)
0.019 ×10⁻⁶ cm/s

---

Assay system Caco-2; read-out recorded as Caco-2.
Where a SMILES comes first, the peptide text is derived from it. Bridges are numbered along the chain shown (N, C = ends). [ ]: non-standard residue; d: D form. The star is where a group is joined. NMePhe(3-Cl) = CN[C@@H](Cc1cccc(Cl)c1)C(=O)O; hhPhe = N[C@@H](CCCc1ccccc1)C(=O)O; NMeF = CN[C@@H](Cc1ccccc1)C(=O)O; NMeI = CC[C@H](C)[C@H](NC)C(=O)O; hPhe = N[C@@H](CCc1ccccc1)C(=O)O; NMeD = CN[C@@H](CC(=O)O)C(=O)O; NMeL = CN[C@@H](CC(C)C)C(=O)O; NMeV = CN[C@H](C(=O)O)C(C)C; NMeA = CN[C@@H](C)C(=O)O; Piperidide = C1CCN(*)CC1; dNMeA = CN[C@H](C)C(=O)O; Sar = CNCC(=O)O; tBu = CC(C)(C)*
Express the result in cm/s but write the number alone.

These recorded examples may help you get a feel for the data.
[[record]]
compound = "CC(C)C[C@H]1C(=O)N[C@@H](COC(C)(C)C)C(=O)N(C)[C@@H](Cc2ccccc2)C(=O)N(C)[C@@H](C)C(=O)N[C@H](C(=O)N2CCCCC2)CC(=O)N[C@H](C(C)C)C(=O)N(C)[C@@H](Cc2ccccc2)C(=O)N[C@@H](CCCc2ccccc2)C(=O)N(C)[C@@H](CC(C)C)C(=O)N[C@@H]([C@@H](C)O)C(=O)N(C)CC(=O)N1C [pd192] ([dV][NMeF][hhPhe][NMeL]T[Sar][NMeL]S(tBu)[NMeF][NMeA]D-Piperidide; lactam N-11)"
property_name = "Caco-2"
result_value = "1.1e-06"

[[record]]
compound = "CC[C@H](C)[C@H]1C(=O)N[C@H](C(=O)N2CCCCC2)CC(=O)N(C)CC(=O)N(C)[C@@H](Cc2ccccc2)C(=O)N[C@@H](CCCc2ccccc2)C(=O)N(C)[C@@H](CC(C)C)C(=O)N[C@@H]([C@@H](C)O)C(=O)N(C)CC(=O)N(C)[C@@H](Cc2ccccc2)C(=O)N(C)[C@@H](CC(C)C)C(=O)N[C@@H](COC(C)(C)C)C(=O)N1C [pd189] ([Sar][NMeF][hhPhe][NMeL]T[Sar][NMeF][NMeL]S(tBu)[NMeI]D-Piperidide; lactam N-11)"
property_name = "Caco-2"
result_value = "1.8e-06"

[[record]]
compound = "CC(C)C[C@H]1C(=O)N(C)[C@@H](Cc2ccccc2)C(=O)N[C@H](C(=O)N2CCCCC2)CC(=O)N(C)[C@@H](C(C)C)C(=O)N[C@@H](C)C(=O)N(C)[C@@H](Cc2ccccc2)C(=O)N(C)[C@@H](CC(C)C)C(=O)N(C)CC(=O)N[C@@H]([C@@H](C)O)C(=O)N(C)[C@@H](C(C)C)C(=O)N[C@@H](CCc2ccccc2)C(=O)N1C [pd182] ([NMeV]A[NMeF][NMeL][Sar]T[NMeV][hPhe][NMeL][NMeF]D-Piperidide; lactam N-11)"
property_name = "Caco-2"
result_value = "2.6e-06"

[[record]]
compound = "CC(C)C[C@H]1C(=O)N[C@@H](CCCc2ccccc2)C(=O)N(C)[C@@H](Cc2ccccc2)C(=O)N(C)[C@@H](C(C)C)C(=O)N[C@H](C(=O)N2CCCCC2)CC(=O)N[C@H](C)C(=O)N(C)[C@@H](Cc2ccccc2)C(=O)N[C@@H](C(C)C)C(=O)N(C)[C@@H](CC(C)C)C(=O)N[C@@H]([C@@H](C)O)C(=O)N(C)CC(=O)N1C [pd193] ([dA][NMeF]V[NMeL]T[Sar][NMeL][hhPhe][NMeF][NMeV]D-Piperidide; lactam N-11)"
property_name = "Caco-2"
result_value = "1e-06"


Record lookup: for Caco-2, what Caco-2 belongs to CC(C)C[C@H]1C(=O)N[C@@H]([C@@H](C)O)C(=O)N(C)CC(=O)N(C)[C@@H](C(C)C)C(=O)N[C@@H](Cc2ccccc2)C(=O)N(C)[C@@H](Cc2cccc(Cl)c2)C(=O)N(C)[C@@H](CC(C)C)C(=O)N(C)[C@H](C(=O)N2CCCCC2)CC(=O)N(C)[C@H](C)C(=O)N[C@@H](Cc2ccccc2)C(=O)N[C@@H](COC(C)(C)C)C(=O)N1C [pd167] ([dNMeA]FS(tBu)[NMeL]T[Sar][NMeV]F[NMePhe(3-Cl)][NMeL][NMeD]-Piperidide; lactam N-11) ?
1.7e-06
